Biological target: HCV NS3 protease (full-length NS3/NS4A-2 complex) (Hepatitis C virus genotype 1a, UniProt P27958)
Construct: Recombinant E. coli or Baculovirus full-length NS3 was diluted to 3.33 μM with assay buffer
Sequence (P27958 1027-1657, one chain of several): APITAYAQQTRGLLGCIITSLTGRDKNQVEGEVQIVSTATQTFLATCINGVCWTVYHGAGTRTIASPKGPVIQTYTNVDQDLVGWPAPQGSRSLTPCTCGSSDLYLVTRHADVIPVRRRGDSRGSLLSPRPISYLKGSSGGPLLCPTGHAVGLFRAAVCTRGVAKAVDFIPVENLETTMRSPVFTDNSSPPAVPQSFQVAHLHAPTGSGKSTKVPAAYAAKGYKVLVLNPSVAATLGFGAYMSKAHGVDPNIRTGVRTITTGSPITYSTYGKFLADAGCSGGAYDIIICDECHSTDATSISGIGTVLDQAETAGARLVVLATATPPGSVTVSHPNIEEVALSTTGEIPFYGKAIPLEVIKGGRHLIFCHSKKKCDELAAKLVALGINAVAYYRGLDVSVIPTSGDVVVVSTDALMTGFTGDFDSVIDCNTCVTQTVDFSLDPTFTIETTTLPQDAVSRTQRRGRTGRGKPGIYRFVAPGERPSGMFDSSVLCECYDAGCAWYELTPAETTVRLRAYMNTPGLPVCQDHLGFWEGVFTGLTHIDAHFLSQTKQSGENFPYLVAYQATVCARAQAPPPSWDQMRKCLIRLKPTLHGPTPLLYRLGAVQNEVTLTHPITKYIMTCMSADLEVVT
Assay: NS3 Inhibition Assay (NS3-NS4 protease assay, RETS1 substrate)
Details: NS3/NS4A-2, RETS1 substrate, 10 minutes pre-incubation
Assay Readout: IC50

- Cpd Smiles: "CC[C@@H]1C[C@@]12NC(=O)[C@@H]1C[C@H](CN1C(=O)[C@@H](NC(=O)OC(C)(C)C)C(C)(C)C)Oc1nc3c(cccc3n1C(C)C)C1=NC(C(C)C)=C(CC/C=C/CCCCS(=O)(=O)NC2=O)S1"
  IC50: "≤ 0.01 µM"

Exam item: Could you share which IC50 value was measured for CC[C@@H]1C[C@@]12NC(=O)[C@@H]1C[C@H](CN1C(=O)[C@@H](NC(=O)OC(C)(C)C)C(C)(C)C)Oc1nc3c(cccc3n1C(C)C)C1=NC(C(C)C)=C(CCCCCCCCC3(CC3)S(=O)(=O)NC2=O)S1 ?
Marked response: 0.01 to 0.1 µM

---

This section presents compounds with their documented IC50 values.
Molecular target: HCV NS3 protease (full-length NS3/NS4A-2 complex) (Hepatitis C virus genotype 1a)
Construct: Recombinant E. coli or Baculovirus full-length NS3 was diluted to 3.33 μM with assay buffer
Test: NS3 Inhibition Assay (NS3-NS4 protease assay, RETS1 substrate)
Details: NS3/NS4A-2, RETS1 substrate, 10 minutes pre-incubation

- Compound: "CC[C@@H]1C[C@@]12NC(=O)[C@@H]1C[C@H](CN1C(=O)[C@@H](N)C(C)(C)C)Oc1nc3c(cccc3n1C(C)C)C1=NC(C(C)C)=C(CCCCCCCCS(=O)(=O)NC2=O)S1 [Compound 110]"
  IC50: "≥ 0.1 µM"
- Compound: "CC[C@@H]1C[C@@]12NC(=O)[C@@H]1C[C@H](CN1C(=O)[C@@H](NC(=O)OC(C)(C)C)C(C)(C)C)Oc1nc3c(cccc3n1C(C)C)C(=O)NCCC=CCCCC1(CC1)S(=O)(=O)NC2=O [Compound 12]"
  IC50: "≤ 0.01 µM"
- Compound: "CC[C@@H]1C[C@@]12NC(=O)[C@@H]1C[C@H](CN1C(=O)[C@@H](N)C(C)(C)C)Oc1nc3c(cccc3n1C(C)C)C1=NC(C(C)C)=C(CCC/C=C/CCCC3(CC3)S(=O)(=O)NC2=O)S1 [Compound 103]"
  IC50: "0.01 to 0.1 µM"
- Compound: "CC[C@@H]1C[C@@]12NC(=O)[C@@H]1C[C@H](CN1C(=O)[C@@H](NC(=O)OC(C)(C)C)C(C)(C)C)Oc1nc3c(cccc3n1C(C)C)CCCC/C=C/CCCC1(CC1)S(=O)(=O)NC2=O [Compound 111]"
  IC50: "0.01 to 0.1 µM"

Exam item: Fill blank: measured IC50 of the compound CC[C@@H]1C[C@@]12NC(=O)[C@@H]1C[C@H](CN1C(=O)[C@@H](NC(=O)OC(C)(C)C)C(C)(C)C)Oc1nc3c(cccc3n1C(C)C)C1=NC(C(C)C)=C(CCC/C=C/CCCC3(CC3)S(=O)(=O)NC2=O)S1 [Compound 101] is ____.
Marked response: ≤ 0.01 µM

Exam item: For the compound shown here, CC[C@@H]1C[C@@]12NC(=O)[C@@H]1C[C@H](CN1C(=O)[C@@H](NC(=O)OC(C)(C)C)C(C)(C)C)Oc1nc3c(cccc3n1C(C)C)CCCCCCCCCC1(CC1)S(=O)(=O)NC2=O [Compound 112] , give the reported IC50.
Marked response: ≤ 0.01 µM

Exam item: Need IC50 of CC[C@@H]1C[C@@]12NC(=O)[C@@H]1C[C@H](CN1C(=O)[C@@H](N)C(C)(C)C)Oc1nc3c(cccc3n1C(C)C)C1=NC(C(C)C)=C(CCCCCCCCC3(CC3)S(=O)(=O)NC2=O)S1 [Compound 104] , thanks.
Marked response: 0.01 to 0.1 µM

Exam item: Any idea what its IC50 is? The compound is CC[C@@H]1C[C@@]12NC(=O)[C@@H]1C[C@H](CN1C(=O)[C@@H](NC(=O)OC(C)(C)C)C(C)(C)C)Oc1nc3c(cccc3n1C(C)C)C(=O)NCC=CCCCC1(CC1)S(=O)(=O)NC2=O [Compound 9]
Marked response: ≤ 0.01 µM

Exam item: What does the record list as IC50 for CC[C@@H]1C[C@@]12NC(=O)[C@@H]1C[C@H](CN1C(=O)[C@@H](NC(=O)OC(C)(C)C)C(C)(C)C)Oc1nc3c(cccc3n1C(C)C)C(=O)NCCCCCCCC1(CC1)S(=O)(=O)NC2=O [Compound 14] ?
Marked response: ≤ 0.01 µM

---

Biological target: HCV NS3 protease (full-length NS3/NS4A-2 complex) (Hepatitis C virus genotype 1a, UniProt P27958)
Construct: Recombinant E. coli or Baculovirus full-length NS3 was diluted to 3.33 μM with assay buffer
Experiment: NS3 Inhibition Assay (NS3-NS4 protease assay, RETS1 substrate)
Conditions: NS3/NS4A-2, RETS1 substrate, 10 minutes pre-incubation
Parameter IC50: see the listing below.

Exam item: I have this compound here, CC[C@@H]1C[C@@]12NC(=O)[C@@H]1C[C@H](CN1C(=O)[C@@H](NC(=O)OC(C)(C)C)C(C)(C)C)Oc1nc3c(cccc3n1C(C)C)C1=NC(C(C)C)=C(CC/C=C\CCCCS(=O)(=O)NC2=O)S1 , and I need its recorded IC50.
Marked response: 10 to 100 nM

Exam item: Which measured IC50 value corresponds to CC[C@@H]1C[C@@]12NC(=O)[C@@H]1C[C@H](CN1C(=O)[C@@H](NC(=O)OC(C)(C)C)C(C)(C)C)Oc1nc3c(cccc3n1C(C)C)C1=NC(C(C)C)=C(CCCCCCCCS(=O)(=O)NC2=O)S1 ?
Marked response: 10 to 100 nM

Exam item: Item under review: CC[C@@H]1C[C@@]12NC(=O)[C@@H]1C[C@H](CN1C(=O)[C@@H](NC(=O)OC(C)(C)C)C(C)(C)C)Oc1nc3c(cccc3n1C(C)C)C(=O)NCCC=CCCC1(CC1)S(=O)(=O)NC2=O . Reported IC50?
Marked response: ≤ 10 nM

Exam item: Could you share which IC50 value was measured for CC[C@@H]1C[C@@]12NC(=O)[C@@H]1C[C@H](CN1C(=O)[C@@H](N)C(C)(C)C)Oc1nc3c(cccc3n1C(C)C)C1=NC(C(C)C)=C(CC/C=C/CCCCS(=O)(=O)NC2=O)S1 ?
Marked response: ≥ 100 nM

Exam item: Please look up its IC50: CC[C@@H]1C[C@@]12NC(=O)[C@@H]1C[C@H](CN1C(=O)[C@@H](N)C(C)(C)C)Oc1nc3c(cccc3n1C(C)C)CCCCCCCCCC1(CC1)S(=O)(=O)NC2=O
Marked response: 10 to 100 nM

Exam item: Quick check: IC50 of CC[C@@H]1C[C@@]12NC(=O)[C@@H]1C[C@H](CN1C(=O)[C@@H](N)C(C)(C)C)Oc1nc3c(cccc3n1C(C)C)C1=NC(C(C)C)=C(CC/C=C\CCCCS(=O)(=O)NC2=O)S1 ?
Marked response: ≥ 100 nM

Exam item: Can you look up the measured IC50 of CC[C@@H]1C[C@@]12NC(=O)[C@@H]1C[C@H](CN1C(=O)[C@@H](NC(=O)OC(C)(C)C)C(C)(C)C)Oc1nc3c(cccc3n1C(C)C)C1=NC(C(C)C)=C(CCC=CCCC3(CC3)S(=O)(=O)NC2=O)S1 for me?
Marked response: ≤ 10 nM

Exam item: Return reported IC50; argument: CC[C@@H]1C[C@@]12NC(=O)[C@@H]1C[C@H](CN1C(=O)[C@@H](NC(=O)OC(C)(C)C)C(C)(C)C)Oc1nc3c(cccc3n1C(C)C)C1=NC(C(C)C)=C(CCCCCCC3(CC3)S(=O)(=O)NC2=O)S1
Marked response: ≤ 10 nM

Exam item: Fill in: IC50 of CC[C@@H]1C[C@@]12NC(=O)[C@@H]1C[C@H](CN1C(=O)[C@@H](NC(=O)OC(C)(C)C)C(C)(C)C)Oc1nc3c(cccc3n1C(C)C)C(=O)NCCCCCCC1(CC1)S(=O)(=O)NC2=O is ___
Marked response: ≤ 10 nM
